Tested on: full length human vWF (SEQ ID NO 7)
Experiment: dot blot KD determination and extent of binding, full length human vWF;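 further: dot blot binding of aptamers to full length human vWF across a protein titration, incubated 30 minutes at room temperature in 1x DPBS with BSA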
Conditions: Phase 1 modification; extent of aptamer binding at 100 nM full length human vWF
Oligonucleotides are written 5' to 3', each unit as a sugar letter and its base; * is a phosphorothioate linkage, no mark a phosphodiester; rarer units and linkages stand in square brackets, end groups in braces. Plain capitals give the bases only. [invdT] = inverted (3'-3') thymidine; d = 2'-deoxy (DNA); m = 2'-O-methyl

>  <Substance>
ARC1210: ARC1172 with one residue replaced by 2'-O methyl residue (DNA dGdGdCdGdTdGdCdAdGdTdGdCdCdTdTdCmGdGdCdCdGdTdGdCdGdGdTdGdCdCdTdCdCdGdTdCdAdCdGdCdC[invdT]; aptamer)

>  <% binding @ 100 nM vWF>
49%

$$$$
>  <Substance>
ARC1115: ARC1029 with PEG spacer replaced with a short oligonucleotide sequence, dTdTdC (DNA GGCGTGCAGTGCCTTCGGCCGTGCGGTGCCTCCGTCACGCC; unmodified DNA)

>  <% binding @ 100 nM vWF>
36%

$$$$
>  <Substance>
dGdGdCdGTdGdCdAdGTdGdCdCTTdCdGdGdCdCdGTdGdCdGdGTdGdCdCTdCdCdGTdCdAdCdGdCdC-3T (DNA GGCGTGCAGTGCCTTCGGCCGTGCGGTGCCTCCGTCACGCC; DNA, [invdT] at 3' end, backbone and methylation of C not given here) [ARC1172, ARC1115 with 3'-inverted dT]

>  <% binding @ 100 nM vWF>
37%

$$$$
>  <Substance>
ARC1202: ARC1172 with one residue replaced by 2'-O methyl residue (DNA dGdGdCdGdTdGdCdAmGdTdGdCdCdTdTdCdGdGdCdCdGdTdGdCdGdGdTdGdCdCdTdCdCdGdTdCdAdCdGdCdC[invdT]; aptamer)

>  <% binding @ 100 nM vWF>
56%

$$$$
>  <Substance>
ARC1238: ARC1172 with composite 2'-O methyl replacements in the stem regions (dGdGdCdGdTdGdCdAdGdTmGdCdCdTdTdCmGmGdCdCdGdTdGdCdGdGdTdGdCdCdTdCdCdGdTdCdAdCdGdCdC[invdT]; aptamer)

>  <% binding @ 100 nM vWF>
43%

$$$$
>  <Substance>
ARC1220: ARC1172 with one residue replaced by 2'-O methyl residue (dGdGdCdGdTdGdCdAdGdTdGdCdCdTdTdCdGdGdCdCdGdTdGdCdGdGmUdGdCdCdTdCdCdGdTdCdAdCdGdCdC[invdT]; aptamer)

>  <% binding @ 100 nM vWF>
17%

$$$$
>  <Substance>
ARC1228: ARC1172 with one residue replaced by 2'-O methyl residue (dGdGdCdGdTdGdCdAdGdTdGdCdCdTdTdCdGdGdCdCdGdTdGdCdGdGdTdGdCdCdTdCdCdGmUdCdAdCdGdCdC[invdT]; aptamer)

>  <% binding @ 100 nM vWF>
43%

$$$$
>  <Substance>
ARC1195: ARC1172 with one residue replaced by 2'-O methyl residue (DNA dGmGdCdGdTdGdCdAdGdTdGdCdCdTdTdCdGdGdCdCdGdTdGdCdGdGdTdGdCdCdTdCdCdGdTdCdAdCdGdCdC[invdT]; aptamer)

>  <% binding @ 100 nM vWF>
55%

$$$$
